From: ChEMBL document CHEMBL1151426

Test: Half life in Plasmodium falciparum infected human dosed every 24 hrs after 48 hrs of infection
Format: ADME, organism-based
Details: in vivo
Value Type: half-life (h)
Return type: number; implicit unit h.

May I ask what half-life has been recorded for C[C@H]1c2cccc(O)c2C(=O)C2=C(O)[C@]3(O)C(=O)C(C(N)=O)=C(O)[C@@H](N(C)C)[C@@H]3[C@@H](O)[C@@H]21.O ?
10.5

* * *

Assay: Half life in Plasmodium falciparum infected human at 200 mg/day, perorally after 7 days
Assay type: ADME, organism-based
Conditions: in vivo, po
Value Type: half-life (min)
Return type: number; implicit unit min.

May I ask what half-life has been recorded for C[C@H]1c2cccc(O)c2C(=O)C2=C(O)[C@]3(O)C(=O)C(C(N)=O)=C(O)[C@@H](N(C)C)[C@@H]3[C@@H](O)[C@@H]21.O ?
840
